B1: TMEM59 peptide (residues 268–280), wild type [modified: long spacer (Tds) at the N-terminal end, used for immobilisation; long spacer (Tds) at the N-terminal end, used for immobilisation] [not stated] / GST-HA-ATG16L1(231–607) … (parent)
chain 1: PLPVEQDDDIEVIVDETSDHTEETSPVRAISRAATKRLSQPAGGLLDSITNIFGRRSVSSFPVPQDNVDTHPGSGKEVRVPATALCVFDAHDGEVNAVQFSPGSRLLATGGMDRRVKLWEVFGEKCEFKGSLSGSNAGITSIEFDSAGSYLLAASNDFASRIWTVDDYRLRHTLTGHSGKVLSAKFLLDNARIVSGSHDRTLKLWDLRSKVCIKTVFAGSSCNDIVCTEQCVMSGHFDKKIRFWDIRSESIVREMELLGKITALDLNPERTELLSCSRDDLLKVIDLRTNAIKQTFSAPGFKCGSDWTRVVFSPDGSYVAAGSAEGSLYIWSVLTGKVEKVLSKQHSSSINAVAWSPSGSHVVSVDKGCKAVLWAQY
chain 2: YVPSEKLSIYGDL

variants of: B1; assay: peptide microarray; details: with GST-HA-ATG16L1(231–607) [human]; ligand 800, 600, 400 nM; parent: 100
Reported values of percent of parent for individual entries
Response body: numeric value in % WT, unit text excluded.

Please review the entries below; each comes with its answer.
MUTATION_CODE	percent of parent (% WT)
chain 2 D12L	110
chain 2 L7R	59
chain 2 L7P	11
chain 2 V2D	18
chain 2 Y1S	28
chain 2 P3W	188

Consider the record given below.
Measured percent of parent, chain 2 L13W : 196
